- Tested on: MDA-MB-231 breast
- experiment-notes: NCI tumour cell line growth inhibition, 48 h; in the data active = GI50 below about 0.43 µM; inactive = the rest
Labels: active, inactive

1. O=S(=O)(Nc1ccc(Cl)c(Cl)c1)c1ccc(-c2cnc(C3CC3)o2)cc1 | inactive
2. N#Cc1cc2c(cc1Cl)SC(=Nc1ccccc1)N(S(=O)(=O)c1ccc(Br)s1)S2(=O)=O | inactive
3. Cc1cc2nc(-c3ccc(O)c(O)c3)n(Cc3ccc(O)c(O)c3)c2cc1C | inactive
4. N=C1C=C(N)C(=O)c2ccccc21 | active

###

- Tested on: OVCAR-5 ovarian
- experiment-notes: NCI tumour cell line growth inhibition, 48 h
Reported TGI is given for each of the following molecules.
observable: TGI

1. Cc1cc(OCC(O)CO)ccc1Cl (stereo not given) | > 100 µM
2. COc1ccc(C2C3=C(COC3=O)N(CCO)c3cc4c(cc32)CCC4)cc1 (stereo not given) | > 50 µM
3. CCOC(=O)CN1C(=O)C(=O)N(c2ccc(OC)c3ccccc23)C1=O | > 100 µM
4. CCOC(=O)CCC(NC(=O)c1ccc(Nc2nc3ccccc3nc2C(=O)OCC)s1)C(=O)OCC (stereo not given) | > 100 µM
5. Nc1c(C(=O)O)nnc2cc(Cl)ccc12 | > 100 µM
6. CCC(C)N1CN(c2ccccc2)C2(CCN(CCCC3(c4ccc(F)cc4)OCCO3)CC2)C1=O (stereo not given) | 22.4 µM
7. CCOc1ccccc1N=Cc1c2ccccc2cc2ccccc12 | 68.9 µM
8. CNC(=O)C1OC(n2cnc3c(NCc4cccc(I)c4)nc(Cl)nc32)C(O)C1O (stereo not given) | 27 µM
9. CN(C)CCOc1ccc2c(c1)C(=O)/C(=C\c1ncc([N+](=O)[O-])n1C)C2 | 5.7 µM
10. COc1cc2c(=O)n(CC3CCCCC3)c3c4cc[nH]c4ncc3c2cc1OC | 24.2 µM
11. CCCCOc1ccc(S(=O)(=O)/N=C(\NO)Nc2ccc(Cl)cc2)cc1 | 33.6 µM
12. Cc1oc2nc(N(C)C)n3cnnc3c2c1C | > 100 µM
13. CCOC(=O)C(=O)Nc1nc2ccc(C)cc2s1 | > 100 µM
14. C=C1C(=O)OC2(C)CCC1CC1OC1(C)CCC=C(C)CCC2O (stereo not given) | > 100 µM
15. ClC1=C(Cl)C2OC3C=CCC3OC2C(Cl)=C1Cl (stereo not given) | > 100 µM
16. N/C(CC(=O)NOC(=O)c1ccccc1)=N/OC(=O)c1ccccc1 | > 100 µM
17. c1ccc(OCc2nnc(CCCCCCCCc3nnc(COc4ccccc4)o3)o2)cc1 | > 100 µM
18. O=c1onc(Nc2ccccc2)n1-c1ccccc1 | > 100 µM
19. CN(C)Cc1cc(C(C)(C)C)cc(CN(C)C)c1O | > 100 µM
20. NC1=C(O)C(=O)C(c2c[nH]c3ccc(OCc4ccccc4)cc23)O1 (stereo not given) | > 100 µM
21. O=C(NNc1nc(-c2ccccc2)cs1)Nc1ccccc1 | > 100 µM
22. CC1=C(SCCC(=O)OC(C[Se]C2=C(C)C(=O)c3ccccc3C2=O)C(=O)NC(C)(C)C)C(=O)c2ccccc2C1=O (stereo not given) | 3.08 µM
23. Cn1c2ccccc2c2c3c(c4c5ccccc5n(C)c4c21)C(=O)N(c1ccccc1)C3=O | > 100 µM
24. CCSc1nc(N)c2cnn(CC)c2n1 | > 100 µM
25. CCOP(=O)(Cc1nc(C#N)c(N)o1)OCC | > 100 µM

###

- System: IGROV1 ovarian
- experiment-notes: NCI tumour cell line growth inhibition, 48 h
observable: GI50

1) O=C(N/N=C/c1ccc(N(CCCl)CCCl)cc1)c1ccc(C(=O)N/N=C/c2ccc(N(CCCl)CCCl)cc2)cc1 | 20.7 µM
2) COC(=O)c1cc(C)[nH]c2c(C)cc3nc4ccccc4c3c12 | 6.01 µM
3) O=C(/C=C/c1ccc(Cl)cc1Cl)c1ccc(Cl)cc1Cl | 22.3 µM
4) Cc1cn2cc(-c3ccc4c(c3)CC(=O)N4)nc2s1 | > 100 µM
5) C[C@@H](C[C@H](CCO)c1ccccc1)c1ccc2ccccc2c1 | 1.57 µM
6) CS(=O)(=O)CCNCc1ccoc1-c1ccc2ncnc(Nc3ccc(OCc4ccccc4)cc3)c2c1 | > 17 µM

###

- System: A549 NSCLC
- experiment-notes: NCI tumour cell line growth inhibition, 48 h
observable: TGI

1. O=[N+]([O-])c1ccc2nc(-c3ccc(Cl)cc3)[nH]c2c1 | 70.5 µM
2. CC(=O)c1c(O)cc(O)c(-c2c(C)cc(O)c3c2C(=O)c2cccc(O)c2C3=O)c1O | 34.2 µM
3. COc1ccc(/C=C2\OC(=O)C(Cl)=C2c2ccc(OC)c(Cl)c2)cc1 | > 100 µM
4. CCOC(=O)Cc1cc(=O)[nH]c(-n2[nH]c(C)c(CCO)c2=O)n1 | > 100 µM
5. CC1/C(=N/O)CC(c2ccccc2)N(N=O)C1c1ccccc1 (stereo unspecified) | > 100 µM
6. NC(=O)c1nc(-c2ccc(Cl)c(Cl)c2)nc2ccccc12 | > 100 µM
7. O=S(=O)(Nc1ccc(Cl)c(Cl)c1)c1ccc(-c2cnc(C3CC3)o2)cc1 | 17.2 µM
8. COC(=O)C(CNC(=O)/C=C/c1ccc(OC(C)=O)c(OC(C)=O)c1)NC(=O)/C=C/c1ccc(OC(C)=O)c(OC(C)=O)c1 (stereo unspecified) | > 100 µM
9. COC(=O)c1cc(C)[nH]c2c(C)cc3nc4ccccc4c3c12 | 22.8 µM
10. Cc1cc2nc(-c3ccc(O)c(O)c3)n(Cc3ccc(O)c(O)c3)c2cc1C | > 100 µM
11. Cc1c(C2CCSc3ccccc3N2)sc2ccccc12 (stereo unspecified) | > 100 µM

###

- Test system: OVCAR-4 ovarian
- experiment-notes: NCI tumour cell line growth inhibition, 48 h
Where a SMILES comes first, the peptide text is derived from it. [ ]: non-standard residue; d: D form.
Reported TGI is given for each of the following molecules.
observable: TGI

1) Cc1ccc(C)c2c1n1c(=O)n(C)c(=O)n21 | > 100 µM
2) CSCC[C@H](NC(=O)[C@@H](N)CC(N)=O)C(=O)N[C@@H](Cc1c[nH]c2ccccc12)C(=O)N[C@@H](CCC(N)=O)C(=O)N[C@@H](CCC(=O)O)C(=O)N[C@H](C(=O)NCC(=O)N[C@@H](CCCCN)C(=O)N[C@H](C)C(=O)O)C(C)C (H-NMWQEVGK[dA]-OH) | > 100 µM
3) CC[C@@H](C(=O)[C@@H](C)[C@@H](O)[C@H](C)[C@@H]1O[C@@H]([C@@H](CC)C(=O)O)CC[C@@H]1C)[C@H]1O[C@]2(C=C[C@@H](O)[C@]3(CC[C@@](C)([C@H]4CC[C@](O)(CC)[C@H](C)O4)O3)O2)[C@H](C)C[C@@H]1C | 34 µM
4) Clc1ncnc2c1nc(C#Cc1ccccc1)n2C1CCCCO1 (centres undefined) | 3.75 µM

###

- System: SK-MEL-28 melanoma
- experiment-notes: NCI tumour cell line growth inhibition, 48 h
Where a SMILES comes first, the peptide text is derived from it. [ ]: non-standard residue; d: D form.
observable: TGI

1) Cc1ccsc1/C=N/Nc1cc(C)c2ccccc2n1 | 30.2 µM
2) CSCC[C@H](NC(=O)[C@@H](N)CC(N)=O)C(=O)N[C@@H](Cc1c[nH]c2ccccc12)C(=O)N[C@@H](CCC(N)=O)C(=O)N[C@@H](CCC(=O)O)C(=O)N[C@H](C(=O)NCC(=O)N[C@@H](CCCCN)C(=O)N[C@H](C)C(=O)O)C(C)C (H-NMWQEVGK[dA]-OH) | > 100 µM
3) N#CNC1=NCCC(=O)N1CCc1c[nH]c2ccccc12 | > 100 µM
4) C/C(=N\Nc1n[nH]c(=S)n1N)c1c(O)cc(C)oc1=O | > 100 µM
5) Cc1cc(OCC(O)CO)ccc1Cl (stereo not drawn) | > 100 µM
6) CCOC(=O)CC(C)C1(C=O)CCCCC1=O (stereo not drawn) | > 100 µM
7) COC(=O)C#CC(N)=O | 47.5 µM
8) Nc1ccc(C(=O)O)cc1 | > 100 µM

###

- Tested on: HOP-62 NSCLC
- experiment-notes: NCI tumour cell line growth inhibition, 48 h
Where a SMILES comes first, the peptide text is derived from it. [ ]: non-standard residue; d: D form. The star is where a group is joined. Cbz = O=C(OCc1ccccc1)*; Aib = CC(C)(N)C(=O)O
Reported TGI is given for each of the following compounds.
observable: TGI

1) COc1cccc(N(CN2C(=O)CCC2OC)C(C)=O)c1 (stereo not drawn) | > 100 µM
2) Cc1ccc2c(c1)Nc1ccccc1P2(=O)O | > 100 µM
3) CC1/C(=N/O)CC(c2ccccc2)N(N=O)C1c1ccccc1 (stereo not drawn) | > 100 µM
4) Nc1c(C(=O)O)nnc2cc(Cl)ccc12 | > 100 µM
5) Cc1nc2sc(C(=O)Nc3ccccc3)c(N)c2cc1C(=O)c1ccccc1 | > 50 µM
6) Cc1ccc(S(=O)(=O)N/N=C\c2c3ccccc3[n+](C)c3ccccc23)cc1 | > 100 µM
7) CNc1nc(-c2ccc3c(N)n[nH]c3c2)cc(N2C[C@@H](C(=O)NC3CCCCC3)CC[C@H]2C)n1 | 17.9 µM
8) CC1CN=C(c2ccc(CN3CCC(CCCC4CCN(Cc5ccc(C6=NCC(C)N6)cc5)CC4)CC3)cc2)N1 (stereo not drawn) | > 100 µM
9) CCOc1ccccc1NC(=O)C1=C(C)NC(C)=C(C(=O)Nc2ccccc2OCC)C1c1cccc([N+](=O)[O-])c1 | > 100 µM
10) CC(C)(NC(=O)C(C)(C)NC(=O)OCc1ccccc1)C(=O)O (Cbz-[Aib]-[Aib]-OH) | > 100 µM
11) N=C1C=C(N)C(=O)c2ccccc21 | 0.435 µM
12) Cc1cc2nc(-c3ccc(O)c(O)c3)n(Cc3ccc(O)c(O)c3)c2cc1C | > 100 µM
13) O=c1onc(Nc2ccccc2)n1-c1ccccc1 | > 100 µM
14) Cc1cc(OCC(O)CO)ccc1Cl (stereo not drawn) | > 100 µM
15) CCOC(=O)CC(C)C1(C=O)CCCCC1=O (stereo not drawn) | > 100 µM
16) Cc1cc(S(=O)(=O)Nc2n[nH]c(Nc3ccccc3)n2)c(SSc2cc(Cl)c(C)cc2S(=O)(=O)Nc2n[nH]c(Nc3ccccc3)n2)cc1Cl | > 100 µM
17) CC[C@@H](C(=O)[C@@H](C)[C@@H](O)[C@H](C)[C@@H]1O[C@@H]([C@@H](CC)C(=O)O)CC[C@@H]1C)[C@H]1O[C@]2(C=C[C@@H](O)[C@]3(CC[C@@](C)([C@H]4CC[C@](O)(CC)[C@H](C)O4)O3)O2)[C@H](C)C[C@@H]1C | 16.9 µM
18) CCCCCCCCCCCCCCCCCCNc1nc(=O)n(C2CC(OP(=O)(O)OCC3OC(n4cc(F)c(=O)[nH]c4=O)CC3O)C(CO)O2)cc1F (stereo not drawn) | > 100 µM
19) COc1ccc(C2=Nc3c(nc(SC)[nH]c3=O)NC(c3ccccc3)C2)cc1 (stereo not drawn) | > 100 µM
20) CN(C)CCOc1ccc2c(c1)C(=O)/C(=C\c1ncc([N+](=O)[O-])n1C)C2 | 4.34 µM
21) CCN1CCC(O)(/C=C/c2ccccc2)C(C(=O)/C=C/c2ccccc2)C1 (stereo not drawn) | 28.4 µM
22) NC(=S)NS(=O)(=O)c1ccc(Cl)cc1 | > 100 µM
23) COc1ccc(/C=C2/CSC/C(=C/c3ccc(OC)c(OC)c3)C2=O)cc1OC | 8.72 µM
